- run_conditions: buffer; pH 7.4; 200.0 µM
// reported log10 solubility kinetic for each item listed
measure_name: log10 solubility kinetic (log10 of the value in µg/mL)

{"molecule": "Cc1ccc(N2C(=O)C3C4C=CC(CC4)C3C2=O)cc1Cl (stereo not given)", "log10 solubility kinetic": 0.15}
{"molecule": "O=C1C=C(NCc2ccccc2)c2ccccc2C1=O", "log10 solubility kinetic": 0.66}
{"molecule": "O=C(O/N=C1\\CCS(=O)(=O)c2sccc21)c1ccc(F)cc1", "log10 solubility kinetic": 0.08}
{"molecule": "O=C1CSCC(=O)N1c1ncc(C(F)(F)F)cc1Cl", "log10 solubility kinetic": 1.62}
{"molecule": "Cc1ccc(NC(=S)NCC(C)CSc2ccc(Cl)cc2)cc1 (stereo not given)", "log10 solubility kinetic": 0.04}
{"molecule": "Nc1ccc2nc(-c3ccccc3)c(-c3ccccc3)nc2c1", "log10 solubility kinetic": 1.41}
{"molecule": "NC(=O)c1ccc(NCCc2ccccc2)c([N+](=O)[O-])c1", "log10 solubility kinetic": 0.70}
{"molecule": "O=C(COc1ccc(-c2ccccc2)cc1)Nc1cccnc1", "log10 solubility kinetic": 0.62}
{"molecule": "CNC(=S)NC(CC(=O)OC)c1ccc2c(c1)OCO2 (stereo not given)", "log10 solubility kinetic": 1.62}
{"molecule": "Clc1ccccc1CN1CCSCC1", "log10 solubility kinetic": 0.20}
